- procedure-summary: in vitro
- condition-summary: human
measurement-name: CC50 (µM)
Give bare numbers, in µM.

### Prompt # lookup: CC50 of CC(C)n1ncc2c(N(C(=O)c3ccc(F)cc3)C(=O)c3ccc(F)cc3)cc(-c3cccs3)nc21 [JX-039]
### Response 10

###

- System: BHK
- condition-summary: read-out: CC50 (Powassan test)
Exercise: for every item that follows, state its recorded CC50.
Give bare numbers, in µM.

Please review the following examples before continuing.
- smiles-notation: "CC(C)n1ncc2c(C(=O)Nc3ccc(F)cc3)cc(-c3cccs3)nc21"
  value-observed: 37
- smiles-notation: "CC(C)n1ncc2c(C(=O)Nc3ccc(F)cc3F)cc(-c3cccs3)nc21"
  value-observed: 38

// switching to the query compound
### Prompt # lookup: CC50 of `CC(C)n1ncc2c(C(=O)Nc3cccc(S(N)(=O)=O)c3)cc(-c3cccs3)nc21`
### Response 8.9
